These entries and their values trace back to the supplement of paper PMC10567573.

Reported protein stability index is given for each of the following variants.
B1: TRIB1 (parent)
chain: SYVRSRKRLREEEAARLFKQIVSA

Variants of: B1
method.notes: protein stability index of a GFP-peptide fusion (GPS, HEK-293T) (PSI 1-6); higher = more stable;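 note: lentivirally expressed fusions sorted by FACS into six bins by GFP to DsRed ratio, PSI derived from sequencing read proportions per bin multiplied by bin number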
test.context: c terminus: a fixed tail appended
observable: protein stability index

>>> readout_value("R4T")
1.8
>>> readout_value("R4I")
1.57
>>> readout_value("E12D")
1.9
>>> readout_value("V22T")
2.94
>>> readout_value("E13P")
2.41
>>> readout_value("A15I")
1.4
>>> readout_value("V3R")
2.63
>>> readout_value("Y2H")
2.58
>>> readout_value("S1P")
2.1
>>> readout_value("A14F")
2.34
>>> readout_value("A24H")
2.58
>>> readout_value("E12C")
1.76
>>> readout_value("E13C")
2.05
>>> readout_value("L17T")
2.87
>>> readout_value("L17Y")
2.61
>>> readout_value("A15E")
2.56
>>> readout_value("S5E")
1.39
>>> readout_value("I21W")
3.98
>>> readout_value("L9P")
1.86
>>> readout_value("E11V")
1.75
>>> readout_value("E13V")
1.65
>>> readout_value("R10V")
1.69
>>> readout_value("A15F")
1.59
>>> readout_value("A15L")
2.05
>>> readout_value("R6F")
1.42
>>> readout_value("V3N")
2.08
>>> readout_value("R10T")
2.67
>>> readout_value("R8P")
2.09
>>> readout_value("E12A")
2.16
>>> readout_value("Q20L")
1.32
>>> readout_value("A14E")
2.85
>>> readout_value("K7F")
2.12
>>> readout_value("R10K")
3.08
>>> readout_value("E11D")
2.17
>>> readout_value("S23N")
2.32
>>> readout_value("S5Y")
2.65
>>> readout_value("S23I")
1.48
>>> readout_value("S23Q")
1.94
>>> readout_value("R4V")
2.28
>>> readout_value("V3D")
2.05
>>> readout_value("S23P")
2.99
>>> readout_value("L17E")
3.46
>>> readout_value("E13S")
2.05
>>> readout_value("S23L")
2.18
>>> readout_value("E11H")
2.41
>>> readout_value("R6M")
1.54
